# tested-system: Rhesus PDE2A3 (Macaca mulatta)
# Sequence (B3VTJ2 1-941): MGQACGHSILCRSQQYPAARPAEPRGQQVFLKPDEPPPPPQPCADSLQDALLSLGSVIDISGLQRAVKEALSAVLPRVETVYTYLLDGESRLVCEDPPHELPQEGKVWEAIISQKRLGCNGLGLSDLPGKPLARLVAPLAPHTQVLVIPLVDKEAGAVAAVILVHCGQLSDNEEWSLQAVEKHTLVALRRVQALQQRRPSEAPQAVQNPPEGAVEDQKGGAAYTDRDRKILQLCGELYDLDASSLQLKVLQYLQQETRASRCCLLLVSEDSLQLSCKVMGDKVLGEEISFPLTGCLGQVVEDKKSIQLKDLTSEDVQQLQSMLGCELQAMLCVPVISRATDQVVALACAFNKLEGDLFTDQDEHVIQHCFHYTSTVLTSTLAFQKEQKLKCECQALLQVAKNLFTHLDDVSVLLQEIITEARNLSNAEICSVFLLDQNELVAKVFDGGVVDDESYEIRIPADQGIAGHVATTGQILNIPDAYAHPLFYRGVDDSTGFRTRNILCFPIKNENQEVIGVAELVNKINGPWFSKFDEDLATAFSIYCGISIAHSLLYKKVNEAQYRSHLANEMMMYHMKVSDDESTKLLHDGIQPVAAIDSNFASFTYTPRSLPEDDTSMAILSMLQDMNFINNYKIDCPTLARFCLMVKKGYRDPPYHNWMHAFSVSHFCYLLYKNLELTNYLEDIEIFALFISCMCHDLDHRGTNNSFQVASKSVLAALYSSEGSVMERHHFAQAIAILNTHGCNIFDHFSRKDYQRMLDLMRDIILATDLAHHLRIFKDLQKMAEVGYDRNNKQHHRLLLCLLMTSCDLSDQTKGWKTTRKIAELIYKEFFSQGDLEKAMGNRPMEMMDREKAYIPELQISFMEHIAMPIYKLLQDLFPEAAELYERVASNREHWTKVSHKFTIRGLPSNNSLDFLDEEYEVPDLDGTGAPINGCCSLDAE
# assay-procedure: PDE2 fluorescence polarization (IMAP FP) assay, rhesus PDE2A3
# Assay type: biochemical, rhesus macaque
# experimental-setup: Lab B, read-out: Rhesus PDE2 Ki (nM) Lab B
# Procedure: A Labcyte Echo 555 (Labcyte, Sunnyvale, Calif.) is used to dispense 200 nL from each well of the titration plate to the 384 well assay plate. […] The plate was incubated at room temperature for at least one hour prior to determining the fluorescence polarization (FP). The parallel and perpendicular fluorescence of each well of the plate was measured using a Tecan Genios Pro plate reader (Tecan, Switzerland) or Perkin Elmer EnVision™ plate reader (Waltham, Mass.). […]
value-type: Ki (nM)

Take a look at these entries with their results.
INSERT INTO measurements (compound, unit_info, value_reported) VALUES
  ('CC(c1ccc(CC(F)(F)F)c(F)c1)n1nc(CO)c2c(=O)[nH]c(N(C)C)nc21 (single isomer, unassigned) [Example 101]', 'nM', 0.35),
  ('O=c1[nH]c(O)nc2c1c(CO)nn2C1(c2ccc(C(F)(F)F)cc2)CCC1', 'nM', 50);

I. CC(c1ccc(C(C)(F)F)c(F)c1)n1nc(CO)c2c(=O)[nH]c(N(C)C)nc21 (single isomer, unassigned) [Example 107]
II. CC(c1ccc(OC(F)(F)F)cc1)n1nc(CO)c2c(=O)[nH]c(O)nc21 (stereo not shown)
Exercise: Between the two listed entries I and II , which has its Ki at the higher number? // output: label of the selected item
Solution: II
(II: 126 nM, I: 0.12 nM)

Source of measurements: patent US10174037B2
